biological target: MtDHFR (Mycobacterium tuberculosis)
Sequence (P9WNX1 whole entry): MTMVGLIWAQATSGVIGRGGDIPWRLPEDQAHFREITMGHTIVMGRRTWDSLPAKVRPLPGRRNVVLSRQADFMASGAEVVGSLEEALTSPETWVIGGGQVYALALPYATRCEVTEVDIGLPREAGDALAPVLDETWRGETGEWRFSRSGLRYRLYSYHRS
endpoint label: pIC50
Answers are plain numbers, as −log10 of the molar value.

Reference set (3 entries):
smiles notation: COc1ccc(C(C)=NNC(=O)COC(=O)c2ccc(-n3cccc3)cc2)cc1
pIC50: 3.89
--
smiles notation: CC(=NNC(=O)COC(=O)c1ccc(-n2cccc2)cc1)c1ccc(N)cc1
pIC50: 4.05
--
smiles notation: C/C(=N\NC(=O)COC(=O)c1ccc(-n2cccc2)cc1)c1ccc([N+](=O)[O-])cc1
pIC50: 3.92

IN: For the molecule shown here, CC(=NNC(=O)COC(=O)c1ccc(-n2cccc2)cc1)c1ccc(Br)cc1Br , give the reported pIC50.
OUT: 4.05

Where do the numbers come from? From paper PMC12088000.
